# target_or_system: KRas-mediated phosphorylation of ERK in H358 cells (Homo sapiens, UniProt P01116, G12C)
# Construct: pERK HTRF read-out
# Sequence (P01116 1-188 isoform P01116-2 G12C): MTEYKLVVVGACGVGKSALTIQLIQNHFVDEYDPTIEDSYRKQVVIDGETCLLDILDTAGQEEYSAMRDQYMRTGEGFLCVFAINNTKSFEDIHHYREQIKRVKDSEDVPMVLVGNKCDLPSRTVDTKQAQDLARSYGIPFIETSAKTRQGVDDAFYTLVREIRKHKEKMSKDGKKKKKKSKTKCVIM
# assay_notes: Inhibition of KRas-mediated phosphorylation of ERK (HTRF), H358 cells
# Assay type: cell-based
# assay_context: HTRF pERK, 3 h incubation
measured_attribute: IC50 (nM)
Dear colleague, please return just the value in nM, with no unit written.

Example entries and their recorded answers appear below.
query: Name the reported IC50 value associated with the compound CN(C)Cc1ccn(C(=O)C2CCCN(c3nc(OC[C@@]45CCCN4C[C@H](F)C5)nc4c(F)c(-c5ccc(F)c6sc(N)c(C#N)c56)c(Cl)cc34)CC2)n1 (some centres unmarked)
result: 59

query: Same again, this time with "C#Cc1c(F)ccc2cc(O)cc(-c3ncc4c(N5CCC(C(=O)n6ccc(C)n6)CC5)nc(OC[C@@]56CCCN5C[C@H](F)C6)nc4c3F)c12"
result: 3080

More entries:
query: Name the reported IC50 value associated with the compound CCc1cc(O)cc2cccc(-c3c(Cl)cc4c(N5CCCC(C(=O)n6ccc(C)n6)CC5)nc(OC[C@@]56CCCN5C[C@H](F)C6)nc4c3F)c12 (some centres unmarked)
result: 847

query: Same again, this time with "CCc1c(F)ccc2cc(O)cc(-c3ncc4c(N5CCC(C(=O)N(C)C(C)=O)CC5)nc(OC[C@@]56CCCN5C[C@H](F)C6)nc4c3F)c12"
result: 2530

query: Same again, this time with "Cc1ccn(C(=O)CCCNc2nc(OC[C@@]34CCCN3C[C@H](F)C4)nc3c(F)c(-c4ccc(F)c5sc(N)c(C#N)c45)c(Cl)cc23)n1"
result: 8

query: Same again, this time with "COCCN(C(C)=O)C(=O)C1CCN(c2nc(OC[C@@]34CCCN3C[C@H](F)C4)nc3c(F)c(-c4ccc(F)c5sc(N)c(C#N)c45)c(Cl)cc23)CC1"
result: 19

query: Same again, this time with "CN(CCNC(=O)n1nccn1)c1nc(OC[C@@]23CCCN2C[C@H](F)C3)nc2c(F)c(-c3ccc(F)c4sc(N)c(C#N)c34)c(Cl)cc12"
result: 10

query: Same again, this time with "CCc1c(F)ccc2cc(O)cc(N3CCc4c(nc(OC[C@@]56CCCN5C[C@H](F)C6)nc4N4CCC(C(=O)n5ccc(C)n5)CC4)C3)c12"
result: 3830

query: Same again, this time with "COc1ccccc1OC(=O)C1CCN(c2nc(OC[C@@]34CCCN3C[C@H](F)C4)nc3c(F)c(-c4ccc(F)c5sc(N)c(C#N)c45)c(Cl)cc23)CC1"
result: 9

query: Same again, this time with "CN(CCN(C)c1nc(OC[C@@]23CCCN2C[C@H](F)C3)nc2c(F)c(-c3ccc(F)c4sc(N)c(C#N)c34)c(Cl)cc12)C(=O)n1cncn1"
result: 3

query: Same again, this time with "CCc1c(F)ccc2cc(O)cc(-c3ncc4c(N5CCC(C(=O)n6ccc(C(C)(C)C)n6)CC5)nc(OC[C@@]56CCCN5C[C@H](F)C6)nc4c3F)c12"
result: 3110
